Before we begin, note that these Ki values for Neprilysin (Rattus norvegicus, UniProt P07861) originate from several publications.
- subject_of_test: Neprilysin (Rattus norvegicus, UniProt P07861)
- Sequence (P07861 whole entry): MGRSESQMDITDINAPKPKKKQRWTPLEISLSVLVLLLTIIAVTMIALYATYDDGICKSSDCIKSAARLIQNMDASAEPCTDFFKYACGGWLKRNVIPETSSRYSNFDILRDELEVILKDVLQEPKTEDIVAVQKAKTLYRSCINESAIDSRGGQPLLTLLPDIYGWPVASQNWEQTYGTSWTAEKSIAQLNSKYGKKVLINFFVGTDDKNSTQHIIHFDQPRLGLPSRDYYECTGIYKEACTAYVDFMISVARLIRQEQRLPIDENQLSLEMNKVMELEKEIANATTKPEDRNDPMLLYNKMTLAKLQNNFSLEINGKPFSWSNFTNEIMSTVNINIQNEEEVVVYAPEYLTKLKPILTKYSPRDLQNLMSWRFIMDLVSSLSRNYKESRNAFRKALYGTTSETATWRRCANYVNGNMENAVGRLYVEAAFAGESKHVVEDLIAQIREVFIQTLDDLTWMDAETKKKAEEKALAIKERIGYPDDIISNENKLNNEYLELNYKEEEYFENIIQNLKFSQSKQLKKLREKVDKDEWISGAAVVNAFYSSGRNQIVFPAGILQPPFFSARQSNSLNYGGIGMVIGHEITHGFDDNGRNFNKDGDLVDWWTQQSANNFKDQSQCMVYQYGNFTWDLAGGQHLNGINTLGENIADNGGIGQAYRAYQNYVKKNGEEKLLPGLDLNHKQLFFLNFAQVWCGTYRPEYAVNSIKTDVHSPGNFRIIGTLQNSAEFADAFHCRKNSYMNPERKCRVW
result_type: Ki (nM)

Before answering, review these 5 worked examples.
compound | subject_of_test | result_type | unit_abbrev | meas_value
CC(C)C[C@@H](C(=O)O)N1Cc2ccccc2C[C@H](NC(=O)[C@H](S)Cc2ccccc2)C1=O | Neprilysin (Rattus norvegicus, UniProt P07861) | Ki | nM | 0.4
O=C(NC1Cc2ccccc2C2CCC[C@H](C(=O)O)N2C1=O)C(S)Cc1ccccc1 (stereo in doubt) | Neprilysin (Rattus norvegicus, UniProt P07861) | Ki | nM | 0.08
O=C(O)CCCCCCNC(=O)C1(CS)CCc2ccccc2C1 (centres undefined) | Neprilysin (Rattus norvegicus, UniProt P07861) | Ki | nM | 0.6
O=C(CNC(=O)C1(CS)CCc2ccccc2C1)OCc1ccccc1 (centres undefined) | Neprilysin (Rattus norvegicus, UniProt P07861) | Ki | nM | 0.4
O=C(O)C1CCCC2c3ccccc3C[C@H](NC(=O)[C@H](S)Cc3ccccc3)C(=O)N12 (some centres undefined) | Neprilysin (Rattus norvegicus, UniProt P07861) | Ki | nM | 0.07

A = C[C@H](NC(=O)C1(CS)CCc2ccccc2C1)C(=O)OCc1ccccc1 (some centres undefined)
B = O=C(O)[C@@H]1CCCC2c3ccccc3C[C@@H](CS)C(=O)N21 (some centres undefined)
C = O=C(N[C@H]1Cc2ccccc2[C@H]2CCC[C@@H](C(=O)O)N2C1=O)[C@@H](S)Cc1ccccc1
D = O=C(NCc1ccc2c(c1)OCO2)C1(CS)CCc2ccccc2C1 (centres undefined)
Task for the reader: rank each entry by its Ki, from the minimum upward. # answer = labels listed in requested order
C, A, D, B
(C: 0.08 nM, A: 0.3 nM, D: 14 nM, B: 45 nM)
